# Experimental Target: CYP19 (aromatase) (Homo sapiens)
# Sequence (P11511 whole entry): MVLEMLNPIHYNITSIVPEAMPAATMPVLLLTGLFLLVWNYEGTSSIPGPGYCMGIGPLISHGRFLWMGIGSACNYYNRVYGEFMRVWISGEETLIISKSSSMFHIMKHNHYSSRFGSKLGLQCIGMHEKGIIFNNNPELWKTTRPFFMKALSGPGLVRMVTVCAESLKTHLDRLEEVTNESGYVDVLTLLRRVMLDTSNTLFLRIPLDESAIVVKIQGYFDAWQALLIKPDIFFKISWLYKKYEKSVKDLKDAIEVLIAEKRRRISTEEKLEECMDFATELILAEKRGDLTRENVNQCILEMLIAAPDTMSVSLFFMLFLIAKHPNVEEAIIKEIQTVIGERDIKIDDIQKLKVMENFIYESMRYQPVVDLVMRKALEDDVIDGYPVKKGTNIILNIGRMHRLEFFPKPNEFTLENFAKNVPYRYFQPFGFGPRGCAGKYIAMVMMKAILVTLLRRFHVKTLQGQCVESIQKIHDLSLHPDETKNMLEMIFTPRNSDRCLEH
# Assay Details: Inhibition of human placental CYP19 at 500 nM using androstenedione as substrate
# Condition Set: human placental CYP19, probe androstenedione
Reported Property: inhibition at 0.5 µM (%)

1. O=C(Nc1cccnc1)c1ccc(F)c(F)c1    0.5
2. O=C(Nc1cccnc1)c1ccc(F)cc1    1.1
3. O=C(Nc1cccnc1)c1ccc([N+](=O)[O-])cc1    0
4. CC(C)(C(=O)c1cccnc1)c1cccnc1 [METYRAPONE]    0

A = O=C(Nc1cccnc1)c1ccc(Cl)cc1
B = N#Cc1ccc(C(=O)Nc2cccnc2)cc1
Request: Please compare: A and B . Report which one has the smaller inhibition at 0.5 µM value. Please indicate the selected item by its label.
Response: A

A = O=C(Nc1cccnc1)c1cc(F)c(F)cc1F
B = O=C(Nc1cccnc1)c1ccc(Br)cc1
Request: Please compare: A and B . Report which one has the smaller inhibition at 0.5 µM value. Please indicate the selected item by its label.
Response: A

* * *

# Experimental Target: UniProt P15538
# Sequence (P15538 whole entry): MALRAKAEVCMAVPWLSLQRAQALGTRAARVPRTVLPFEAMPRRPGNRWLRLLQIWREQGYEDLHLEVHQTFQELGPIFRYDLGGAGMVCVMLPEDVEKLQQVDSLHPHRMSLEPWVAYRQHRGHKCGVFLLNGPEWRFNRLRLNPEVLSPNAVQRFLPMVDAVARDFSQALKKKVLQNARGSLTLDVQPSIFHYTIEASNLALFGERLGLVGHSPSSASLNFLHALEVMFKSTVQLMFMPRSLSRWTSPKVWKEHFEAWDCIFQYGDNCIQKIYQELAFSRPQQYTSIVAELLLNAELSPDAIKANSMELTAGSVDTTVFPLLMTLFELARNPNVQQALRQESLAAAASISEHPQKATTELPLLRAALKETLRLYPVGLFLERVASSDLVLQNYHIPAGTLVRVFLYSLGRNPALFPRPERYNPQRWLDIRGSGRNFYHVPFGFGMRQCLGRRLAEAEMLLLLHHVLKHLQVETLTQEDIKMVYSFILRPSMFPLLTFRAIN
# Assay Details: Inhibition of human steroid-11beta-hydroxylase expressed in chinese hamster V79 cells using 11-deoxycorticosterone as substrate
Reported Property: IC50 (µM)

Take a look at these entries with their results.
1) O=C(Nc1cccnc1)c1ccc(Br)cc1    16.7
2) O=C(Nc1cccnc1)c1ccc(Cl)cc1    10.2
3) O=C(Nc1cccnc1)c1cc(F)c(F)cc1F    16.1
4) O=C(Nc1cccnc1)c1ccc([N+](=O)[O-])cc1    24.8
5) N#Cc1ccc(C(=O)Nc2cccnc2)cc1    7.5

P = O=C(Nc1cccnc1)c1ccc(F)cc1
Q = O=C(Nc1cccnc1)c1ccc(F)c(F)c1
Request: Please compare: P and Q . Report which one has the smaller IC50 value. Please indicate the selected item by its label.
Response: Q
(Q: 5.92 µM, P: 14.3 µM)

* * *

# Species on record: Homo sapiens
# Assay Details: Selectivity ratio of IC50 for human steroid-11beta-hydroxylase to IC50 for human aldosterone synthase
Reported Property: Ratio IC50

Take a look at these entries with their results.
1. O=C(Nc1cccnc1)c1cc(F)c(F)cc1F    97
2. O=C(Nc1cccnc1)c1ccc(Br)cc1    161
3. O=C(Nc1cccnc1)c1ccc([N+](=O)[O-])cc1    171
4. N#Cc1ccc(C(=O)Nc2cccnc2)cc1    96
5. O=C(Nc1cccnc1)c1ccc(Cl)cc1    157

1 = O=C(Nc1cccnc1)c1ccc(F)c(F)c1
2 = O=C(Nc1cccnc1)c1ccc(F)cc1
Request: Please compare: 1 and 2 . Report which one has the smaller Ratio IC50 value. Please indicate the selected item by its label.
Response: 1

* * *

# Experimental Target: CYP11B1 (steroid-11beta-hydroxylase) (Homo sapiens, UniProt P15538)
# Assay Details: Inhibition of human steroid-11beta-hydroxylase expressed in chinese hamster V79 cells at 500 nM using 11-deoxycorticosterone as substrate
# Condition Set: probe 11-deoxycorticosterone
Reported Property: inhibition at 0.5 µM (%)

1) O=C(Nc1cccnc1)c1ccc(F)c(F)c1    6
2) O=C(Nc1cccnc1)c1ccc(C(F)(F)F)cc1    1

A = O=C(Nc1cccnc1)c1ccccc1
B = O=C(Nc1cccnc1)c1ccc(Cl)cc1
C = O=C(Nc1cccnc1)c1cccnc1
D = O=C(Nc1cccnc1)c1ccccc1F
E = COc1ccc(C(=O)Nc2cccnc2)cc1
Request: Highest inhibition at 0.5 µM first, then in falling order down to the smallest. # respond with the labels, arranged in the requested order
Response: B, C, A, D, E
